# Tested on: Mycobacterium tuberculosis
# assay: Ability to inhibit 100%growth against Mycobacterium tuberculosis H37Rv in Youman's medium
# Type: functional, organism-based
metric: Concentration

# input molecule: O=C(CNc1ccc2ccccc2c1)N/N=C/c1ccncc1 ; wanted: its Concentration 1 µg/mL

Now the same for NNC(=O)c1ccncc1 1 µg/mL

Now the same for CC(CC(=O)NN)Nc1ccc2ncccc2c1 (configuration not stated) 100 µg/mL

Now the same for CC(Nc1ccc2ccccc2c1)C(=O)NN (configuration not stated) 1 µg/mL

Now the same for COc1ccc2cc(NC(C)C(=O)NN)ccc2c1 (configuration not stated) 50 µg/mL

Now the same for O=C(O)CNc1ccc2ncccc2c1 100 µg/mL

Now the same for NNC(=O)CNc1ccc2ncccc2c1 100 µg/mL
